B1: TPR t1 (parent)
chain: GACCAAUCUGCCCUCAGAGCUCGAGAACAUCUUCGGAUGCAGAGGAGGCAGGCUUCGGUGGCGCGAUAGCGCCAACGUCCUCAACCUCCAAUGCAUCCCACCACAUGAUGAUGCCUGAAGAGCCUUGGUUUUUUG

Variants of: B1
Assay: polymerase ribozyme fitness, log enrichment relative to wild type (log ratio); higher = more active; in vitro selection for triplet polymerase activity
Quantity name: polymerase ribozyme fitness (log ratio)

See these solved cases before continuing.
INSERT INTO assay_data (mutation_notation, quantity_name, observed) VALUES
  ('C12G G36U U132A', 'polymerase ribozyme fitness (log ratio)', -1.56),
  ('C73U A84U', 'polymerase ribozyme fitness (log ratio)', -0.363),
  ('C12A U33A G48U A74C C94U', 'polymerase ribozyme fitness (log ratio)', -5.8),
  ('C49U C73G A121C', 'polymerase ribozyme fitness (log ratio)', 0.163),
  ('C73U U133A', 'polymerase ribozyme fitness (log ratio)', 0.4),
  ('G10A U129A', 'polymerase ribozyme fitness (log ratio)', -1.14);

Exercise: Give me measured polymerase ribozyme fitness (log ratio), please, for this variant: C49A G69C
Key: -1.8
